Test system Dipeptidyl peptidase 8 (Homo sapiens), Ki listed for each of the compounds.

{"structure": "Cc1nc2cc(-c3ccccc3Cl)nn2c(-c2ccc(Cl)cc2Cl)c1CO", "observed.value": "> 30 µM"}

Now look at this one.
Input line: Tell me reported Ki for `Cc1nc2cc(-c3ccccc3)nn2c(-c2ccc(Cl)cc2Cl)c1CO` , tested with Dipeptidyl peptidase 8 (Homo sapiens).
Sequence (Q6V1X1 whole entry): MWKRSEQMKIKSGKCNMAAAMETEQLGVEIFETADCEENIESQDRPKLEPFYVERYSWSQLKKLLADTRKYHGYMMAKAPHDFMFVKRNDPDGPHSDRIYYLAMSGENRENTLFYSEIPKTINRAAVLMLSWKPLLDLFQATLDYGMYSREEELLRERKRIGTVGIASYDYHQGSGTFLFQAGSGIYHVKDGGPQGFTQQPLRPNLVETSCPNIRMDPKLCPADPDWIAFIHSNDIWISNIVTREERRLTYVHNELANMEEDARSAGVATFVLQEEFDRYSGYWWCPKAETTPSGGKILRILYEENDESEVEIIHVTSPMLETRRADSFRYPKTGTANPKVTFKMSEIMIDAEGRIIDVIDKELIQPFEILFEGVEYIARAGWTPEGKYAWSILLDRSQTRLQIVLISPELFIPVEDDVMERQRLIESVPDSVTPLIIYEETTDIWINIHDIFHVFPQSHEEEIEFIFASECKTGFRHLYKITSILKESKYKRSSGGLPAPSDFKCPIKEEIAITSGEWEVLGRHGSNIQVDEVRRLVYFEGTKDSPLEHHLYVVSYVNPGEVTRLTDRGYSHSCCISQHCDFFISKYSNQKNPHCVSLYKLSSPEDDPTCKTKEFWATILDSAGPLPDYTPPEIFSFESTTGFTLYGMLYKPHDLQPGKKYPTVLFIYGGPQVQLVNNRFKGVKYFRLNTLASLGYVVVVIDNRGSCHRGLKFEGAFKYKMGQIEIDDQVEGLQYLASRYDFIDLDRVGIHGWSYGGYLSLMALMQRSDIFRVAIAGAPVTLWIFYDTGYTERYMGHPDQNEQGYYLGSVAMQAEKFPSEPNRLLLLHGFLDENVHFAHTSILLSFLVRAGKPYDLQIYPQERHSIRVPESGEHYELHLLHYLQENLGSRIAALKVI
Output line: > 30 µM

----------
# experimental.protocol: Bioavailability in dog
# Type: ADME, organism-based, Canis lupus familiaris
# experimental.parameters: in vivo
measurement.type: bioavailability (%)
Give the value, in units of %, as a plain number.

Input line: Report bioavailability for CC1c2nnc(C(F)(F)F)n2CCN1C(=O)C[C@H](N)Cc1cc(F)c(F)cc1F.Cl (stereo partly specified) please.
Output line: 91
